assay: Measurement of brain fraction unbound (equilibrium dialysis); format: in vitro ADME; details: pH 7.4, rat brain homogenate, 37° C., read-out: FU brain (%, rat)
Quick list: fraction unbound at 5 h, 5 μM per entry.
Readout kind: fraction unbound at 5 h, 5 μM

> print(dat)
                                   compound  recorded.value
1  Cc1ccc(-n2nccn2)c(C(=O)N2C3CC(C3)[C@@H](C)C2CNc2cnc(C(F)(F)F)cn2)n1 (single isomer, unassigned) [Example 167]          0.0593
2  C[C@@H]1C2CC(C2)N(C(=O)c2cc(F)ccc2-n2nccn2)C1CNc1nc2cccnc2s1 (single isomer, unassigned)          0.0438
3  Cc1ccc(-n2nccn2)c(C(=O)N2C3CC(C3)[C@@H](C)C2CNc2nc3cccnc3s2)n1 (single isomer, unassigned)           0.147
4  C[C@@H]1C2CC(C2)N(C(=O)c2nn(C)cc2-c2ncccn2)C1CNc1ccc(C(F)(F)F)cn1 (single isomer, unassigned) [Example 215]          0.0761
5  C[C@@H]1C2CC(C2)N(C(=O)c2nn(C)cc2-c2ncccn2)C1CNc1ccc(C(F)(F)F)cn1 (mixture of isomers) [Example 213]          0.0876
6  Cc1ccc(-c2ncccn2)c(C(=O)N2C3CC(C3)[C@@H](C)[C@@H]2COc2ccc(F)cc2)n1 (single isomer, unassigned)          0.0258
7  Cc1ccc(-n2nccn2)c(C(=O)N2C3CC(C3)[C@@H](C)C2CNc2ccc(C(F)(F)F)cn2)n1 (single isomer, unassigned)          0.0256

---

target: human Orexin type 1 receptors (Homo sapiens (Human)); test: Scintillation Proximity Assay (SPA) binding assay, [3H]SB-674042 displacement, CHO-hOX1 membranes; settings: Table 2, [3H]SB-674042 2 nM
Sequence (O43613 whole entry): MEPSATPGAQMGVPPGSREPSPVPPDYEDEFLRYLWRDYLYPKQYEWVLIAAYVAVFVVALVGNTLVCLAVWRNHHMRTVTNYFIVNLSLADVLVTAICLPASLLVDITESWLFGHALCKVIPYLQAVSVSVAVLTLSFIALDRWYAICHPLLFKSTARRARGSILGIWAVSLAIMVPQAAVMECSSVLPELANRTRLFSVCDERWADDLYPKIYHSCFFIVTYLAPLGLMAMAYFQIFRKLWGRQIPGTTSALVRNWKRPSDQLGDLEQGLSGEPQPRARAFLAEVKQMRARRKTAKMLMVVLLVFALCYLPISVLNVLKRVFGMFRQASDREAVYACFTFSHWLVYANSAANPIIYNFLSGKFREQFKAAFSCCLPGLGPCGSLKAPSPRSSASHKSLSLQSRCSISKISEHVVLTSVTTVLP
Quick list: OX1 pKi (SPA binding) per entry.
Readout kind: OX1 pKi (SPA binding)

> print(dat)
                                   compound  recorded.value
1  Cc1ccc(-n2nccn2)c(C(=O)N2C3CC(C3)[C@@H](C)C2CNc2nc3ccccc3o2)n1 (single isomer, unassigned) [Example 226]            8.46
2  C[C@@H]1C2CC(C2)N(C(=O)c2cc(F)ccc2-n2nccn2)C1CNc1cnc(C2CC2)cn1 (stereo partly drawn)            7.07
3  C[C@@H]1C2CC(C2)N(C(=O)c2cc(Cl)ccc2-n2nccn2)C1CNc1nc2cccnc2s1 (mixture of isomers) [Example 234]            8.45

---

Molecular target: human Orexin type 1 receptors (Homo sapiens (Human))
Assay: Scintillation Proximity Assay (SPA) binding assay, [3H]SB-674042 displacement, CHO-hOX1 membranes
Details: Table 2, [3H]SB-674042 2 nM
Description: Scintillation Proximity Assay (SPA) Binding Assays CHO cells stably transfected with human Orexin type 1 receptors (CHO-hOX1) or HEK-293 cells transiently transfected with human Orexin type 2 receptors (HEK-hOX2) were collected after 16 h induction with 5 mM sodium butyrate. […] Nonspecific binding was measured in the presence of 1 μM Almorexant. Assay plates were then incubated at room temperature for 3 h before being counted in a Microbeta scintillation counter (PerkinElmer). […]
Quick list: OX1 pKi (SPA binding) per entry.
Readout kind: OX1 pKi (SPA binding)

> print(dat)
                                   molecule           readout.kind  recorded.value
1  C[C@H]1C2CC(C2)N(C(=O)c2cc(F)ccc2-n2nccn2)C1COc1ccc(F)cc1 (mixture of isomers)  OX1 pKi (SPA binding)            6.85
2  Cc1ccc(-n2nccn2)c(C(=O)N2C3CC(C3)[C@@H](C)C2CNc2cnc(C(F)(F)F)cn2)n1 (mixture of isomers) [Example 165]  OX1 pKi (SPA binding)            7.63
3  C[C@@H]1C2CC(C2)N(C(=O)c2cc(Cl)ccc2-n2nccn2)C1CNc1cnc(C(F)(F)F)cn1 (single isomer, unassigned) [Example 205]  OX1 pKi (SPA binding)            8.59
4  C[C@@H]1C2CC(C2)N(C(=O)c2cc(C#N)ccc2-n2nccn2)C1CNc1nc2ccc(F)cc2s1 (some centres unmarked) [Example 175]  OX1 pKi (SPA binding)            8.41
5  Cc1ccc(-n2nccn2)c(C(=O)N2C3CC(C3)[C@@H](C)C2CNc2ncc3ccccc3n2)n1 (some centres unmarked)  OX1 pKi (SPA binding)            7.71

---

Quick list: pKi per entry.
target: human Orexin type 1 receptors (Homo sapiens (Human)); assay: Intracellular calcium measurement (FLIPR), antagonism of Orexin-A at EC80 in CHO-hOX1 cells
pKi: −log10 of the molar value.
Readout kind: pKi

> print(dat)
                                   molecule                               measured.on  readout.kind  recorded.value
1  Cc1ccc(-c2ncccn2)c(C(=O)N2C3CC(C3)[C@H](C)[C@@H]2COc2ccc(F)cn2)n1 (single isomer, unassigned)  human Orexin type 1 receptors (Homo sapiens (Human))           pKi            8.01
2  Cc1ccc(-c2ncccn2)c(C(=O)N2C3CC(C3)[C@@H](C)[C@@H]2COc2ccc(F)cn2)n1 (single isomer, unassigned)  human Orexin type 1 receptors (Homo sapiens (Human))           pKi            8.00
3  Cc1nc(C(=O)N2C3CC(C3)[C@@H](C)[C@@H]2COc2ccc(F)cc2)c(-c2ccccc2)s1 (single isomer, unassigned)  human Orexin type 1 receptors (Homo sapiens (Human))           pKi            8.86
4  Cc1ccc(-c2ncccn2)c(C(=O)N2C3CC(C3)[C@@H](C)[C@H]2COc2ccc(F)cc2)c1 (single isomer, unassigned)  human Orexin type 1 receptors (Homo sapiens (Human))           pKi            8.47
5  Cc1nc(C(=O)N2C3CC(C3)C(C)C2COc2ccc(F)cc2)c(-c2ccccc2)s1 (mixture of isomers)  human Orexin type 1 receptors (Homo sapiens (Human))           pKi            8.50
6  Cc1ccc(-c2nccs2)c(C(=O)N2C(COc3ccc(F)cc3)CC3CC2C3)n1 (single isomer, unassigned) [Example 6]  human Orexin type 1 receptors (Homo sapiens (Human))           pKi            8.29

---

Quick list: OX1 pKi (SPA binding) per entry.
target: UniProt O43613; test: Scintillation Proximity Assay (SPA) binding assay, [3H]SB-674042 displacement, CHO-hOX1 membranes; conditions: Table 2, [3H]SB-674042 2 nM
Readout kind: OX1 pKi (SPA binding)

> print(dat)
                                    compound     measured.on  recorded.value
 1  C[C@@H]1C2CC(C2)N(C(=O)c2cc(F)ccc2-n2nccn2)C1CNc1cnc2ccccc2n1 (single isomer, unassigned) [Example 189]  UniProt O43613            8.51
 2  C[C@@H]1C2CC(C2)N(C(=O)c2cc(F)ccc2-n2nccn2)C1CNc1cnc(C(F)(F)F)cn1 (mixture of isomers) [Example 221]  UniProt O43613            7.73
 3  C[C@@H]1C2CC(C2)N(C(=O)c2cc(C#N)ccc2-n2nccn2)C1CNc1cnc2cc(F)ccc2n1 (mixture of isomers) [Example 238]  UniProt O43613            7.98
 4  Cc1ccc(-n2nccn2)c(C(=O)N2C3CC(C3)[C@@H](C)C2CNc2nc3ccc(F)cc3o2)n1 (mixture of isomers) [Example 218]  UniProt O43613            8.33
 5  Cc1ccc(-c2nccs2)c(C(=O)N2C3CC(C3)[C@@H](C)C2CNc2ccc(F)cc2)c1 (some centres unmarked) [Example 202]  UniProt O43613            6.71
 6  C[C@@H]1C2CC(C2)N(C(=O)c2cc(Cl)ccc2-n2nccn2)C1CNc1nc2cccnc2s1 (single isomer, unassigned) [Example 236]  UniProt O43613            8.99
 7  C[C@@H]1C2CC(C2)N(C(=O)c2cc(Cl)ccc2-n2nccn2)C1CNc1ncc(C(F)(F)F)cn1 (single isomer, unassigned) [Example 241]  UniProt O43613            8.27
 8  C[C@@H]1C2CC(C2)N(C(=O)c2ccc(F)cc2-n2nccn2)C1CNc1cnc(C(F)(F)F)cn1 (some centres unmarked) [Example 252]  UniProt O43613            7.19
 9  Cc1ccc(-n2nccn2)c(C(=O)N2C3CC(C3)[C@H](C)C2CNc2ncc3ccccc3n2)n1 (some centres unmarked) [Example 149]  UniProt O43613            6.82
10  Cc1ccc(-c2ncccn2)c(C(=O)N2C3CC(C3)[C@H](C)C2COc2ccc(Cl)cn2)n1 (mixture of isomers) [Example 118]  UniProt O43613            7.39
11  Cc1ccc(-n2nccn2)c(C(=O)N2C3CC(C3)[C@@H](C)C2CNc2cc3ccccc3cn2)n1 (some centres unmarked) [Example 151]  UniProt O43613            7.59
12  C[C@@H]1C2CC(C2)N(C(=O)c2cc(C#N)ccc2-n2nccn2)C1CNc1cnc(C(F)(F)F)cn1 (mixture of isomers) [Example 237]  UniProt O43613            7.33
13  C[C@@H]1C2CC(C2)N(C(=O)c2nn(C)cc2-c2ccccc2)C1CNc1ccc(C(F)(F)F)cn1 (single isomer, unassigned) [Example 211]  UniProt O43613            8.91
14  Cc1ccc(-n2nccn2)c(C(=O)N2C3CC(C3)[C@@H](C)C2CNc2ncc(C(F)(F)F)cn2)n1 (mixture of isomers) [Example 193]  UniProt O43613            7.57
15  Cc1cn(-c2ccc(C)nc2C(=O)N2C3CC(C3)[C@@H](C)C2COc2ccc(F)cc2)nn1 (mixture of isomers) [Example 146]  UniProt O43613            6.88
16  Cc1ccc(-c2sc(C)nc2C(=O)N2C3CC(C3)[C@@H](C)C2COc2ccc(F)cc2)cn1 (some centres unmarked) [Example 143]  UniProt O43613            7.14
17  C[C@@H]1C2CC(C2)N(C(=O)c2cc(F)ccc2-n2nccn2)C1CNc1ncc(C2CC2)cn1 (some centres unmarked) [Example 260]  UniProt O43613            7.45
18  Cc1ccc(-c2ncc(F)cn2)c(C(=O)N2C3CC(C3)[C@@H](C)C2COc2ccc(F)cc2)n1 (mixture of isomers) [Example 134]  UniProt O43613            7.85
19  Cc1nc(C(=O)N2C3CC(C3)[C@H](C)C2COc2ccc(F)cc2)c(-c2ccccn2)s1 (mixture of isomers) [Example 123]  UniProt O43613            8.02
20  Cc1nc(C(=O)N2C3CC(C3)[C@@H](C)C2COc2ccc(F)cc2)c(-n2cccn2)s1 (mixture of isomers) [Example 141]  UniProt O43613            6.91
21  C[C@@H]1C2CC(C2)N(C(=O)c2ccc(Cl)cc2-n2nccn2)C1CNc1cnc(C(F)(F)F)cn1 (mixture of isomers) [Example 246]  UniProt O43613            7.57
22  Cc1ccc(-n2nccn2)c(C(=O)N2C3CC(C3)[C@@H](C)C2CNc2ccc(C(F)(F)F)cn2)n1 (single isomer, unassigned) [Example 183]  UniProt O43613            8.31
23  Cc1nc(C(=O)N2C3CC(C3)[C@H](C)C2COc2ccc(F)cc2)c(-c2ncccn2)s1 (single isomer, unassigned) [Example 115]  UniProt O43613             8.5
24  Cc1ccc(-n2nccn2)c(C(=O)N2C3CC(C3)[C@@H](C)C2CNc2nc3ccccc3s2)n1 (single isomer, unassigned) [Example 180]  UniProt O43613            8.78
25  Cc1ccc(-n2ncc(C)n2)c(C(=O)N2C3CC(C3)[C@@H](C)C2COc2ccc(F)cc2)n1 (mixture of isomers) [Example 144]  UniProt O43613            7.96
26  Cc1cccc(-c2sc(C)nc2C(=O)N2C3CC(C3)[C@@H](C)C2COc2ccc(F)cc2)n1 (mixture of isomers) [Example 137]  UniProt O43613            7.97

Data provenance is patent US11660293B2.
